assay: acute toxicity, LD50/30, injection into blood circulation, 30 days observation; assay type: in vivo, Swiss mice and Wistar rats; conditions: in vivo, iv; dose causing death of 50% of animals within 30 days; slow injection into the blood circulation during 3 to 5 minutes; mice and rats; probit analysis
Values of LD50 at 720 h strictly less than 300 µmol/kg map to class 1, and values of at least 300 µmol/kg map to class 0.

compound	label.value
O=C(O)C(C(=O)O)N1CCOCCOCCN(C(C(=O)O)C(=O)O)CCOCCOCC1 [Example 2]	class 0
O=C([O-])C(C(=O)[O-])N1CCOCCOCCN(C(C(=O)[O-])C(=O)[O-])CCOCCOCC1.[K+].[K+].[K+].[K+] [3/a]	class 0
CC(C(=O)O)(C(=O)O)N1CCOCCOCCN(C(C)(C(=O)O)C(=O)O)CCOCCOCC1 [Example 15]	class 0

Ask: Hello, I'm reviewing records and need to know if LD50 at 720 h of O=C([O-])C(C(=O)[O-])N1CCOCCOCCN(C(C(=O)[O-])C(=O)O)CCOCCOCC1.[Na+].[Na+].[Na+] [Example 11] is below 300 µmol/kg. Could you check?
Reply: class 1

Ask: is_below(LD50 at 720 h, 300 µmol/kg) for O=C([O-])C(C(=O)[O-])N1CCOCCOCCN(C(C(=O)[O-])C(=O)[O-])CCOCCOCC1.[Na+].[Na+].[Na+].[Na+] [1/a] ?
Reply: class 0

Ask: Answer whether the compound O=C(O)C(Cc1ccccc1)(C(=O)O)N1CCOCCOCCN(C(Cc2ccccc2)(C(=O)O)C(=O)O)CCOCCOCC1 [Example 16] has LD50 at 720 h strictly less than 300 µmol/kg
Reply: class 0
